protocol details: NCI Yeast Anticancer Drug Screen. Data for the rad50 strain (AID 155);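 further: 0% = growth of vehicle-only cultures of the same strain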
condition: S. cerevisiae rad50 strain growth inhibition; at 5.0 µM (retest, dose inferred, filed as 0.5); stronger effect = higher value
About 79,000 compounds went through this panel and 15% of them were active in at least one assay; those are over-represented in the sample as a whole.
Mark NOT MET for growth inhibition values under 30%, and MET for everything at or above.

Field: example entries. Status: answers known.
[[record]]
compound = "Nc1cc(Cl)c(S(=O)(=O)O)cc1Cl"
classification = "MET"

[[record]]
compound = "C/C(=N\\NC(=S)N1CCN(c2ccccn2)CC1)c1nccs1"
classification = "NOT MET"

[[record]]
compound = "COc1ccc2c(c1)c[n+](C)c1c3cc(OC)c(OC)cc3ccc21"
classification = "NOT MET"

[[record]]
compound = "CCCCCCCCC(Sc1n[nH]c(=O)[nH]c1=O)C(=O)OCC (stereo not given)"
classification = "NOT MET"


Task: State whether the measured growth inhibition reaches 30%, counting equality as reaching it, for `Cc1nc(N=C(N)N)nc2ccc3ccccc3c12`
Result: MET

Task: Is growth inhibition for `Nc1ccccc1Oc1ccc(Cl)cc1Cl` at or above 30%?
Result: NOT MET

Task: I'd appreciate it if you could say whether `Cc1ccc(S(=O)(=O)NC2CCCCCCC2)cc1` has growth inhibition at least equal to 30%.
Result: MET

Task: Exam item: decide whether the reported growth inhibition for `CCCCCCCCCCCCCCCC(=O)NCC[N+](C)(C)C` is at least 30%.
Result: MET

Task: Tell me whether growth inhibition is at least 30% here: `O=C(/C(=C\c1ccc(Cl)c(Cl)c1)c1ccccc1)c1ccc(O)cc1`
Result: MET

Task: Given the entry `Clc1ccc(CNNCc2ccc(Cl)cc2)cc1` , answer whether its growth inhibition meets or surpasses 30%.
Result: NOT MET

Task: Assess whether reported growth inhibition for CCC(C)c1ccc(O)c(C(C)CC)c1 (stereo not given) sits at 30% or higher.
Result: MET

====

protocol details: NCI Yeast Anticancer Drug Screen. Data for the rad50 strain (AID 155);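 further: 0% = growth of vehicle-only cultures of the same strain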
condition: S. cerevisiae rad50 strain growth inhibition; at 5.0 µM (retest, dose inferred, filed as 0.5); stronger effect = higher value
Procedure: Growth inhibition of yeast strains with defined genetic alterations is measured as a screen for potential anti-cancer activity. Selected strains with alterations in DNA damage repair or cell cycle control were exposed to compounds and growth inhibition was measured relative to vehicle treated controls. The strain used in this assay is rad50
This is part of a sample that, as a whole, favours compounds with a hit. Of some 79,000 tested, about 15% had one in any assay.
attribute measured: growth inhibition (%)
Give a bare numeral; the unit % is implied.

Task: Which growth inhibition reading was recorded for the molecule `O=C1c2cccc(NCCCNCCO)c2C(=O)c2cccc(NCCCNCCO)c21` ?
Result: 33

Task: Record request: growth inhibition value, item `Cc1cccc(Cc2ccccc2Cl)c1O`
Result: 0

Task: I am curious: what growth inhibition value has been reported for `O=C(Nc1cc(-c2ccccc2)[nH]n1)c1ccccc1F` ?
Result: 41

Task: growth inhibition for `O=C(c1ccco1)N(C(=S)N1CCN(c2ccccn2)CC1)C1CCCCC1` ?
Result: 5

Task: What does the record list as growth inhibition for `CCN1/C(=C/C=C/C=C/c2sc3ccccc3[n+]2CC)Sc2ccccc21` ?
Result: 97

Task: Which measured growth inhibition value corresponds to OCC1OC(n2cnc3c(=S)nc[nH]c32)C(O)C1O (stereo unspecified) ?
Result: -3

====

Entries and their growth inhibition values follow.
protocol details: NCI Yeast Anticancer Drug Screen. Data for the rad50 strain (AID 155);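 further: 0% = growth of vehicle-only cultures of the same strain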
condition: S. cerevisiae rad50 strain growth inhibition; at 50.0 µM; stronger effect = higher value
Experimental: Growth inhibition of yeast strains with defined genetic alterations is measured as a screen for potential anti-cancer activity. Selected strains with alterations in DNA damage repair or cell cycle control were exposed to compounds and growth inhibition was measured relative to vehicle treated controls. The strain used in this assay is rad50
The panel holds about 79,000 compounds, 15% with a hit somewhere; the sample as a whole holds those more often.
Supply the numeric figure in %, leaving out any unit text.

Below are worked cases with known answers.
[[record]]
compound = "Nc1ccccc1Oc1ccc(Cl)cc1Cl"
result_number = 92

[[record]]
compound = "COc1ccc(Cc2ccc(O)cc2)cc1"
result_number = 33.3

[[record]]
compound = "OC(CF)(c1ccc(Cl)cc1)c1ccc(Cl)cc1"
result_number = 90.3


Task: Quick one: growth inhibition for `CC(C)c1ccc(C=Nc2ccc(SSc3ccc(N=Cc4ccc(C(C)C)cc4)cc3)cc2)cc1` ?
Result: 73.7

Task: I have this compound here, C=CCc1c2c(ccc(=O)c1O)-c1c(cc(OC)c(OC)c1OC)CCC2NC(C)=O (centres undefined) , and I need its recorded growth inhibition.
Result: 70.3

Task: What value of measured growth inhibition is listed for `c1cc2c3c(c1)c1cc4c(cc1c[n+]3CC2)OCO4` ?
Result: 89.9

Task: Requested read-out: growth inhibition. Entry: `Cc1nc(N=C(N)N)nc2ccc3ccccc3c12`
Result: 80.8

Task: Could you share which growth inhibition value was measured for `CC(C)CCC[C@@H](C)[C@H]1CC[C@H]2[C@@H]3CC=C4N5CCCN=C5CC[C@]4(C)[C@H]3CC[C@]12C` ?
Result: 98

Task: Look up growth inhibition: `c1ccc(-c2cnc(-c3ccc(-c4ncc(-c5ccccc5)o4)cc3)o2)cc1`
Result: -8.4

Task: Need growth inhibition of COc1ccc(C2c3cc4c(cc3OC(NNC(N)=O)C2C)OCO4)cc1 (centres undefined) , thanks.
Result: 84.5

Task: Need growth inhibition of `Fc1ccccc1-c1ncc(-c2ccccc2)o1` , thanks.
Result: 23.4

Task: Value lookup for growth inhibition; key = `Fc1cccc(CSC(=S)Nc2ccc(F)c(F)c2)c1`
Result: 99.6

Task: Can you look up the measured growth inhibition of `CCO/C=C1\SC(=S)N(c2cccc(O)c2)C1=O` for me?
Result: 28.4

Task: Need growth inhibition, item `CCOC(=O)c1ccc(NCc2ccc3ccccc3n2)cc1`
Result: 71.6

====

protocol details: NCI Yeast Anticancer Drug Screen. Data for the cln2 rad14 strain (AID 165);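 further: 0% = growth equal to vehicle treated cultures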
condition: S. cerevisiae cln2 rad14 strain, at 5.0 µM (retest, dose inferred, filed as 0.5), stronger effect = higher value
This is part of a sample that, as a whole, favours compounds with a hit. Of some 79,000 tested, about 15% had one in any assay. Activity calls are given as the source filed them. Rule as the data show it: active = growth inhibition above about 70%; inactive = the rest.
attribute measured: growth inhibition

Worked set:
[[record]]
chemical_structure = "CCOC(CN=c1nc(N(C)C)ss1)OCC"
result = "-22% (inactive)"

[[record]]
chemical_structure = "CC(C)(C)OC(=O)NOc1ccc([N+](=O)[O-])cc1[N+](=O)[O-]"
result = "8% (inactive)"


Task: // growth inhibition lookup, key: `NNc1c2ccccc2nc2ccccc12`
Result: 4% (inactive)

Task: Which growth inhibition value is on record for `CS(=O)(=O)OCCN(CCOS(C)(=O)=O)c1ccc(C=Nc2ccc(-c3csc(Cc4ccccc4)n3)cc2)c(Cl)c1` ?
Result: 7% (inactive)

Task: Suppose we examine the compound `O=C(Nc1cc(-c2ccccc2)[nH]n1)c1ccccc1F` ; what growth inhibition value has been reported?
Result: 30% (inactive)

Task: Value lookup for growth inhibition; key = `C=CCCC(=O)O`
Result: 4% (inactive)

====

Items are presented alongside their recorded growth inhibition.
protocol details: NCI Yeast Anticancer Drug Screen. Data for the rad50 strain (AID 155);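 further: 0% = growth of vehicle-only cultures of the same strain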
condition: S. cerevisiae rad50 strain growth inhibition; at 50.0 µM (retest, dose inferred, filed as 5.0); stronger effect = higher value
This is part of a sample that, as a whole, favours compounds with a hit. Of some 79,000 tested, about 15% had one in any assay.
Report the value in % with no unit label.

Task: Report growth inhibition for `NC(=O)N/N=C/c1ccc([N+](=O)[O-])o1` please.
Result: 73

Task: What value of growth inhibition has been reported for the following compound? NC(CCCCNC(=O)c1ccccc1)C(=O)O (stereo unspecified)
Result: 4

Task: I'd like to know its growth inhibition. The compound in question is `Nc1cc2c(cc1[N+](=O)[O-])[nH]c1c(-c3ccccc3)nccc12`
Result: 97

Task: Data request, read-out growth inhibition, for `O=C1C(Cl)=C(N2CCN(C3=C(Cl)C(=O)c4ccccc4C3=O)CC2)C(=O)c2ccccc21`
Result: 98

Task: Given the compound `Cc1ccc(S(=O)(=O)Nc2cc(S(=O)(=O)O)c(N)c3c2C(=O)c2ccccc2C3=O)cc1` , what is its reported growth inhibition?
Result: 99

Task: GET /values?readout=growth inhibition&item= CC(C)CC(Nc1c(O)ccc2ccccc12)C(=O)O (stereo unspecified)
Result: 98

Task: growth inhibition for `Cc1nc2c(nc1C)C(=O)c1ccccc1C2=O` ?
Result: 98

Task: GET /values?readout=growth inhibition&item= CCCCCCCCCCCCCCCCCC(=O)OC(Cc1ccccc1)C(=O)O (stereo unspecified)
Result: -2

Task: Tell me the measured growth inhibition of `CCCCCCCCCCCC(=O)CN1CCOCC1` , please.
Result: 99

Task: // returns reported growth inhibition for input `O=C1c2ccccc2C(=O)c2c(O)c(O)cc(O)c21`
Result: 97

Task: Which measured growth inhibition value corresponds to CC(C)C1=CC23CCC4C(C)(C(=O)O)CCCC4(C)C2CC1C1C(=O)OC(=O)C13 (stereo unspecified) ?
Result: 99
